These measurements were taken from PubChem BioAssay (NCATS).

- system_name: Cellular tumor antigen p53 (Homo sapiens) (UniProt P04637)
- Sequence (P04637 whole entry, looked up): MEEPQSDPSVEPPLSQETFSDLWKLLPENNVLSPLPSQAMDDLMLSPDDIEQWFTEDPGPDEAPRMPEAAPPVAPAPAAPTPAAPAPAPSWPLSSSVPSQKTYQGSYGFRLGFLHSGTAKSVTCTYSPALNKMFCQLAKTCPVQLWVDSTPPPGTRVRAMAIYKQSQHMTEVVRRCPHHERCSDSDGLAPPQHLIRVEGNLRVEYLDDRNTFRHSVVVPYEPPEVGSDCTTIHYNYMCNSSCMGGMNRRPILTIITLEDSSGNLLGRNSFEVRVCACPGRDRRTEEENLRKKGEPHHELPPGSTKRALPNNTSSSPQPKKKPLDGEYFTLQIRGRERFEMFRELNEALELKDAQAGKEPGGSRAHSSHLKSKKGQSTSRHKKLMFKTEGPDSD
- protocol_notes: Primary qHTS for small molecule compounds that upregulate eGFP-tagged delta133p53alpha (in C-terminal) cells. (AID 2060324)
- applied_conditions: NCI-H358 delta133p53alpha-eGFP (C-terminal tag), GFP fluorescence imaging, 24 h; series mostly up to 57.5 µM
Records with an inconclusive call do not appear. The source made the active and inactive calls. Calls come from the whole dose curve; as a rule, active = well fitted activation curve with a large enough effect; inconclusive = small, poorly fitted or top-dose-only effect; inactive = flat fitted curve, though single readings scatter.
Assign a class; possible classes are active, inactive

IN: So what was the verdict on CC[N+](CC)(CC)CC(=O)Nc1c(C)cccc1C in this test?
OUT: inactive

IN: Try CC(O)C(O)[C@H]1CNc2nc(N)[nH]c(=O)c2N1 (stereo partly specified) next.
OUT: inactive

IN: Try COc1ccccc1N1CCN(CCCCN2C(=O)c3ccccc3C2=O)CC1 next.
OUT: inactive

* * *

- protocol_notes: BET inhibitor-based combinations targeting novel dependencies in MECOM-rearranged (r) AML: HNT-34 cell line (AID 2202234); note: nearly all actives have a fitted effect of over 35% in size
- applied_conditions: HNT-34 AML viability, CellTiter-Glo luminescence, 48 h; series mostly up to 46 µM
Inconclusive results are not listed. Activity calls are given as the source filed them. Calls come from the whole dose curve; as a rule, active = well fitted inhibition curve with a large enough effect; inconclusive = small, poorly fitted or top-dose-only effect; inactive = no such curve, though single readings can be large or run the other way.
Assign a class; possible classes are active, inactive

Previously resolved entries follow.
CC(C)NCC(O)c1ccc(O)c(O)c1 (centres undefined)
inactive
CN(C)C/C=C/C(=O)Nc1ccc(C(=O)Nc2cccc(Nc3ncc(Cl)c(-c4c[nH]c5ccccc45)n3)c2)cc1
active
C[C@H]1c2cccc(O)c2C(O)=C2C(=O)[C@]3(O)C(O)=C(C(N)=O)C(=O)[C@@H](N(C)C)[C@@H]3[C@@H](O)[C@@H]21
active

IN: So what was the verdict on CC(=O)[C@H]1CC[C@H]2[C@@H]3CC=C4C[C@@H](O)CC[C@]4(C)[C@H]3CC[C@]12C in this test?
OUT: inactive

IN: Try O=C(c1ccc(Nc2nccc(-c3cc4ccccc4s3)n2)cc1)N1CCC(N2CCCC2)CC1 next.
OUT: active

IN: Try COc1cc(OC)c(/C=C/S(=O)(=O)Cc2ccc(OC)c(NCC(=O)O)c2)c(OC)c1 next.
OUT: active

IN: Try O=C(NCCCNc1nc(Nc2cccc(CN3CCOCC3)c2)ncc1C1CC1)C1CCC1 next.
OUT: active

IN: Try CCCN[C@H]1CCc2nc(N)sc2C1 next.
OUT: inactive

IN: Try C[C@H]1CN(C[C@H](Cc2ccccc2)C(=O)NCC(=O)O)CC[C@@]1(C)c1cccc(O)c1 next.
OUT: inactive

* * *

- protocol_notes: BET inhibitor-based combinations targeting novel dependencies in MECOM-rearranged (r) AML: AML-191 cell line (AID 2202236; note: nearly all actives have a fitted effect of over 35% in size; note: potency is the fitted concentration of half-maximal effect)
- applied_conditions: AML-191 viability, CellTiter-Glo luminescence, 48 h; series mostly up to 46 µM
Results filed as inconclusive are left out. Active and inactive are the calls of the source. Calls come from the whole dose curve; as a rule, active = well fitted inhibition curve with a large enough effect; inconclusive = small, poorly fitted or top-dose-only effect; inactive = flat fitted curve, though single readings scatter.
attribute_measured: Potency

O=C1c2ccccc2-[n+]2ccc3c([nH]c4ccccc43)c21
1.66 µM (active)
CNc1nc(Nc2cnn([C@H]3CCN(C4COC4)C[C@@H]3F)c2Cl)ncc1C(F)(F)F
16.6 µM (active)
O=C(CC12CC3CC(CC(C3)C1)C2)Nc1cccc2nc(NCCNCCO)ccc12
inactive
CC[C@]1(O)C[C@H]2CN(CCc3c([nH]c4ccccc34)[C@@](C(=O)OC)(c3cc4c(cc3OC)N(C=O)[C@H]3[C@@](O)(C(=O)OC)[C@H](OC(C)=O)[C@]5(CC)C=CCN6CC[C@]43[C@@H]65)C2)C1
0.263 µM (active)
NCCCCCC(=O)O
inactive
O=C(NC1CCNCC1)c1[nH]ncc1NC(=O)c1c(Cl)cccc1Cl
2.09 µM (active)
CN1CCN(CCOc2cc(OC3CCOCC3)c3c(Nc4c(Cl)ccc5c4OCO5)ncnc3c2)CC1
18.6 µM (active)
CC1(C)Cc2c(-c3ccccc3)c(-c3ccc(Cl)cc3)c(CC(=O)O)n2C1
inactive

IN: Consider the compound CC(C(=O)O)c1cccc(C(=O)c2ccccc2)c1 (centres undefined) and give its measured Potency.
OUT: inactive
